# measurement target: ScLsb2
# test method notes: SPOT peptide array binding signal intensity (averaged, normalized) (arbitrary units (background-subtracted, floor 0; scale differs between SH3 domains)); higher = stronger binding of the SH3 domain to the peptide
# Lookup of reported SPOT peptide array binding signal intensity keyed by entry
Respond with the number and no other words.

As a guide, the following entries are already answered.
- binder: "FIRKRAPTPPAPSRS"
  reported value: 313
- binder: "RPVPPPPPMRTTTEG"
  reported value: 434
- binder: "RKLRTVPGVPLIHLT"
  reported value: 2

As a next step, examine the binder that follows.
## Task What does the data say about its SPOT peptide array binding signal intensity? Entry: VYTRTAFQIPGDDKI
## Result 895
